// provenance: the OPERA property sets (Mansouri et al. 2018)

Reported property: boiling point (°C)

INSERT INTO assay_data (compound, unit_spec, experimental_result) VALUES
  ('CC(C)(C)N', '°C', 45),
  ('CCCCC(C(=O)OCC)C(=O)OCC', '°C', 238),
  ('C#CCCCCCC#C', '°C', 162),
  ('CC(=O)NC(C)=O', '°C', 224),
  ('CCCCCCCCc1ccccc1', '°C', 264),
  ('Cc1cc(Br)cc([N+](=O)[O-])c1', '°C', 270),
  ('OC1CCCCCC1', '°C', 185),
  ('CCSC(=O)SCC', '°C', 197),
  ('CCCCN(C(C)=O)c1ccccc1', '°C', 281),
  ('C=C(Cl)C(C)Cl (configuration not stated)', '°C', 112),
  ('O=C(O)C1=CCCCC1', '°C', 241),
  ('NC(=O)c1ccccc1N', '°C', 300),
  ('COc1c(Cl)ccc(Cl)c1Cl', '°C', 227),
  ('CC#CCC(C)C', '°C', 102),
  ('CC(C)C(Cl)Cl', '°C', 106),
  ('CC(=O)OCC(CO)OC(C)=O (configuration not stated)', '°C', 259),
  ('CC(=O)CC1CCCCN1 (configuration not stated)', '°C', 195),
  ('Cc1cc(C)c(O)cc1O', '°C', 276),
  ('CC(C)F', '°C', -10),
  ('CC(O)CC(C)(C)O (configuration not stated)', '°C', 198),
  ('C=CC(C)Cl (configuration not stated)', '°C', 64.5),
  ('CN(C)[Si](C)(C)C', '°C', 86),
  ('CCCCCCCCCCCCCCCCCCCCc1ccccc1', '°C', 429),
  ('C1CS1', '°C', 55.5),
  ('CC(C)CCC(C)O (configuration not stated)', '°C', 151),
  ('CCOC(=O)CN', '°C', 149),
  ('CCN(CC)N=O', '°C', 177),
  ('CCCCCCCC(C)CC (configuration not stated)', '°C', 188),
  ('O=C1CCC1', '°C', 99),
  ('COC=Cc1ccccc1', '°C', 212),
  ('O=C(Cl)c1cccc(C(=O)Cl)c1', '°C', 276),
  ('C#CCO', '°C', 114),
  ('ClCCCI', '°C', 171),
  ('CCSCCSCC', '°C', 217),
  ('C[Si]1(C)O[Si](C)(C)O[Si](C)(C)O[Si](C)(C)O[Si](C)(C)O[Si](C)(C)O1', '°C', 245),
  ('CC1CCC(C)(C)C1 (configuration not stated)', '°C', 105),
  ('CCC(CC)COCCC(=O)O', '°C', 343),
  ('CC(=O)C1(O)CCCCC1', '°C', 126),
  ('CCCCCCCC(=O)OC', '°C', 193),
  ('C=C(C)CCCCC', '°C', 119),
  ('CCC(CC)c1ccccn1', '°C', 195),
  ('Cc1ccc2nccnc2c1', '°C', 249),
  ('O=C1CCOCC1', '°C', 166),
  ('FC(F)C(F)(F)CBr', '°C', 74),
  ('Cc1ccc(C)c(C)c1', '°C', 169),
  ('OCCS', '°C', 158),
  ('CCOP(=O)(OCC)OCC', '°C', 216),
  ('CCCC(Cl)CC (configuration not stated)', '°C', 123),
  ('Cc1cccc2cccc(C)c12', '°C', 270),
  ('CCCCCCCOCCCCCCC', '°C', 258),
  ('C=CC(C)(C)C(=O)O', '°C', 185),
  ('COc1cccc(Cl)n1', '°C', 186),
  ('CCOC(=O)c1ccc(OC)cc1', '°C', 270),
  ('CC1CCCCCC1=O (configuration not stated)', '°C', 185),
  ('CCOc1ccccc1C', '°C', 184),
  ('O=C1C[C@H]2CCCC[C@H]2C1', '°C', 222),
  ('CCOC(C)CC (configuration not stated)', '°C', 81),
  ('CCOC(=O)CC(=O)C(F)(F)F', '°C', 133),
  ('CCN1C(=O)c2ccccc2C1=O', '°C', 286),
  ('CC1=CCC(C(C)(C)O)CC1 (configuration not stated)', '°C', 219),
  ('CC1CCCCCC1', '°C', 134),
  ('CC1=CCCC1=O', '°C', 157),
  ('CC(C)C(C)(O)C(C)C', '°C', 156),
  ('c1ccc([C@@H]2CCCNC2)cc1', '°C', 257),
  ('Nc1cccc(Br)c1', '°C', 251),
  ('CC(C)(C)ON=O', '°C', 63),
  ('O=C(Cl)CCCCl', '°C', 174);

----------
Answer 0 if boiling point is under 100 °C, and 1 if it is 100 °C or more.

INSERT INTO results (structure_notation, group) VALUES
  ('CCC(C)(C)N', 0),
  ('C=C1C(=O)O[C@@H]2C[C@@]3(C)CCC[C@H](C)C3=C[C@H]12', 1),
  ('ON=C1CCCC1', 1),
  ('C=CCOC', 0),
  ('Clc1ccc(I)cc1', 1),
  ('CCN1CCCC1', 1);

----------
Reported property: boiling point

INSERT INTO measurements (compound, reported_property, experimental_result) VALUES
  ('CC(Br)C(Br)Br (stereo not drawn)', 'boiling point', '200 °C'),
  ('Cc1ccccc1N(C)C', 'boiling point', '194 °C'),
  ('NCCN1CCOCC1', 'boiling point', '205 °C');

----------
Reported property: melting point

INSERT INTO measurements (compound, reported_property, experimental_result) VALUES
  ('O=[N+]([O-])c1ccc(Cl)c(Cl)c1', 'melting point', '43 °C'),
  ('Cc1cccc(C)c1[N+](=O)[O-]', 'melting point', '15 °C'),
  ('CC(=O)C1C(=O)C=C(C)OC1=O (stereo unspecified)', 'melting point', '109 °C'),
  ('CC(C)OC(=O)C1(S(=O)(=O)c2ccc([N+](=O)[O-])cc2)CCCCCC1', 'melting point', '83.5 °C'),
  ('CCOCCN(Cc1ccc(CN(CCOCC)C(=O)C(Cl)Cl)cc1)C(=O)C(Cl)Cl', 'melting point', '140 °C'),
  ('CCOC(=O)CC(=O)OCC', 'melting point', '-50 °C'),
  ('CCCN.Cl', 'melting point', '161 °C'),
  ('FC(F)(F)c1cccc(C(c2ccccc2)(c2ccccc2)n2cncn2)c1', 'melting point', '132 °C'),
  ('NC(=O)c1c(F)c(F)c(F)c(F)c1F', 'melting point', '147 °C'),
  ('NS(=O)(=O)c1ccc(S(=O)(=O)CCCO)c([N+](=O)[O-])c1', 'melting point', '169 °C'),
  ('NC(=O)OCCCl', 'melting point', '75.5 °C');

----------
Listing of entries alongside the reported boiling point.
Reported property: boiling point (°C)

INSERT INTO assay_data (compound, reported_property, experimental_result) VALUES
  ('SC1CCCCC1', 'boiling point', 159),
  ('CC(c1ccccc1)C1CCCCC1 (centres undefined)', 'boiling point', 265),
  ('CCC(C)O[N+](=O)[O-] (centres undefined)', 'boiling point', 124),
  ('Cc1ccc(Cl)cc1Cl', 'boiling point', 201),
  ('c1ccc2oncc2c1', 'boiling point', 215),
  ('NC(=O)c1ccccc1', 'boiling point', 290),
  ('C=CCCCCCCCCC(=O)OCC', 'boiling point', 264),
  ('C=COCCC', 'boiling point', 65),
  ('c1ccc(Nc2ccccc2)cc1', 'boiling point', 302),
  ('BrCC1CO1 (centres undefined)', 'boiling point', 135),
  ('COc1cccc(CO)c1', 'boiling point', 252),
  ('CCC(Cl)Cl', 'boiling point', 88.1),
  ('O=C(O)CCCC(=O)O', 'boiling point', 303),
  ('Cc1ccnc(C)c1', 'boiling point', 158),
  ('CC1CN1 (centres undefined)', 'boiling point', 67),
  ('COC(=O)C(C)C(=O)OC', 'boiling point', 174),
  ('O=C(Cl)C(F)(F)C(F)(F)C(F)(F)C(F)(F)C(F)(F)C(F)(F)C(F)(F)F', 'boiling point', 131),
  ('CN(C)Cc1ccccc1', 'boiling point', 181),
  ('CCCCCCCCCCCCCCCCCCCCCCCCCCCCC', 'boiling point', 441),
  ('CCOc1ccccc1N', 'boiling point', 232),
  ('CC(=O)c1ccc(F)cc1', 'boiling point', 196),
  ('Cc1ccccc1NCc1ccccc1', 'boiling point', 302),
  ('CCCCOC(=O)CC', 'boiling point', 147),
  ('C[C@H]1CC=CCC1', 'boiling point', 103),
  ('Cc1ccc(N=C=S)cc1', 'boiling point', 237),
  ('CCOC=Nc1ccccc1', 'boiling point', 214),
  ('Oc1cccc2cccnc12', 'boiling point', 267),
  ('C=C(CC)CC', 'boiling point', 64.7),
  ('c1ccc2c(c1)ccc1c2ccc2c3ccccc3ccc21', 'boiling point', 519);
